This listing pairs compounds with measured inhibition at 1000 µg/mL.
- Tested system: α-L-fucosidase (Bos taurus, UniProt Q2KIM0)
- Construct: purchased Sigma
- Sequence (Q2KIM0 23-468): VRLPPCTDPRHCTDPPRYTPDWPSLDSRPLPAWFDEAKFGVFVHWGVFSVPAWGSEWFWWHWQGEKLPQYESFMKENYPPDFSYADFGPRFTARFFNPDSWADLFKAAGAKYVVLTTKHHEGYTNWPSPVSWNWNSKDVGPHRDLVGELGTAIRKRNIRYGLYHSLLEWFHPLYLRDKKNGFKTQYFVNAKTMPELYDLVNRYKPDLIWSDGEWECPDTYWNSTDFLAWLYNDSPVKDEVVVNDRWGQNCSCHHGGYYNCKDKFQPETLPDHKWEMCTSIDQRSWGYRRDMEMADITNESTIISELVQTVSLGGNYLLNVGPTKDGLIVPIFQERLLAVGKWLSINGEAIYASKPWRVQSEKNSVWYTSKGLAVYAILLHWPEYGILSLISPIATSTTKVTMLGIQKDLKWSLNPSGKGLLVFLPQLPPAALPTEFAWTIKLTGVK
- Experimental details: Glycosidase inhibition: α-L-fucosidase
- Assay type: biochemical, Bovine
- Condition: 1 mg/ml; read-out: % inhibition, fucosidase

Compound	Unit symbol	inhibition at 1000 µg/mL
OC[C@@H]1[C@@H](O)[C@H](O)[C@H]2[C@H](O)[C@@H](O)CN21	%	-1
OC[C@H]1[C@@H](O)[C@H](O)[C@H]2[C@H](O)[C@@H](O)CN21 [3-epi-casuarine (14), 3-epi-casuarine]	%	-2
OC[C@H]1[C@@H](O)[C@H](O)[C@H]2[C@@H](O)[C@H](O)CN21 [Compound 12, 3,6,7-triepi-casuarine]	%	-11
O[C@H]1[C@H](O)[C@@H](O)CN2CC[C@H](O)[C@H]12 [Castanospermine (20), Castanospermine, reference compound]	%	3
OC[C@@H]1[C@@H](O)[C@H](O)[C@H]2[C@@H](O)[C@@H](O)CN21 [7-epi-casuarine (11), 7-epi-casuarine]	%	25
OC[C@H]1[C@@H](O)[C@H](O)[C@H]2[C@@H](O)[C@@H](O)CN21 [3,7-diepi-casuarine (10)]	%	5

---

- Tested on: α-D-glucosidase
- Experimental details: Glycosidase inhibition: α-D-glucosidase, Bacillus
- Type: biochemical, Bacillus stearothermophilus
- Condition: 1 mg/ml
Property: % inhibition, gluc (Bacillus); scope: individual compounds
Attribute measured: % inhibition, gluc (Bacillus) (%)

Compound	Observed
OC[C@H]1[C@@H](O)[C@H](O)[C@@H]2[C@@H](O)[C@H](O)CN21 [Compound 21, 3,6,7,7a-tetraepi-casuarine]	−2
OC[C@H]1[C@@H](O)[C@H](O)[C@H]2[C@@H](O)[C@H](O)CN21 [Compound 12, 3,6,7-triepi-casuarine]	9
OC[C@H]1[C@@H](O)[C@H](O)[C@@H]2[C@@H](O)[C@@H](O)CN21 [Compound 22, 3,7,7a-triepi-casuarine]	87
OC[C@H]1[C@@H](O)[C@H](O)[C@H]2[C@@H](O)[C@@H](O)CN21 [3,7-diepi-casuarine (10)]	−7
OC[C@H]1[C@@H](O)[C@H](O)[C@H]2[C@H](O)[C@@H](O)CN21 [3-epi-casuarine (14), 3-epi-casuarine]	12
O[C@H]1[C@H](O)[C@@H](O)CN2CC[C@H](O)[C@H]12 [Castanospermine (20), Castanospermine, reference compound]	6
OC[C@@H]1[C@@H](O)[C@H](O)[C@H]2[C@H](O)[C@@H](O)CN21	86
OC[C@@H]1[C@@H](O)[C@H](O)[C@H]2[C@@H](O)[C@@H](O)CN21 [7-epi-casuarine (11), 7-epi-casuarine]	5

---

The reader will find reported inhibition at 1000 µg/mL values listed item by item below.
- Tested system: α-D-glucosidase (Saccharomyces cerevisiae)
- Construct: purchased Sigma
- Sequence (P53341 whole entry): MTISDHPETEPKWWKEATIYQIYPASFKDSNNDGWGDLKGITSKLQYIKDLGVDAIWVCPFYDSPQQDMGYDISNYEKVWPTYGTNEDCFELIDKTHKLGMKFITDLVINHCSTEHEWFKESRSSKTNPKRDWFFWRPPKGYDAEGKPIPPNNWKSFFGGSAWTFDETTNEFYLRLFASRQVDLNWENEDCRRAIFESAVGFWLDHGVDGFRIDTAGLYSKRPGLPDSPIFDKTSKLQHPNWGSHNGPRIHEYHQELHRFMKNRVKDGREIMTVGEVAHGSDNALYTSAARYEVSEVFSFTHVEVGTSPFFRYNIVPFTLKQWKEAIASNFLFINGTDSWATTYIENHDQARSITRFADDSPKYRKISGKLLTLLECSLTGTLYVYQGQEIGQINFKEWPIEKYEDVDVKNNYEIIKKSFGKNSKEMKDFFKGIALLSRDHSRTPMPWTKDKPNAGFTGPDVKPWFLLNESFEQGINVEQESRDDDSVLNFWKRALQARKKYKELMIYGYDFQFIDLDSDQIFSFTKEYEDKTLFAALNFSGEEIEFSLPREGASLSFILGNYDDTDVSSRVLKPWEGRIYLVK
- Experimental details: Glycosidase inhibition (p-nitrophenyl substrate): α-D-glucosidase, yeast
- Format: biochemical, Saccharomyces cerevisiae (Baker's yeast)
- Condition: 1 mg/ml; read-out: % inhibition, gluc (yeast)

Molecule	inhibition at 1000 µg/mL, %
O[C@H]1[C@H](O)[C@@H](O)CN2CC[C@H](O)[C@H]12 [Castanospermine (20), Castanospermine, reference compound]	-8
OC[C@H]1[C@@H](O)[C@H](O)[C@H]2[C@@H](O)[C@H](O)CN21 [Compound 12, 3,6,7-triepi-casuarine]	2
OC[C@@H]1[C@@H](O)[C@H](O)[C@H]2[C@H](O)[C@@H](O)CN21	64
OC[C@H]1[C@@H](O)[C@H](O)[C@@H]2[C@@H](O)[C@@H](O)CN21 [Compound 22, 3,7,7a-triepi-casuarine]	29
